method.notes: Aqueous equilibrium solubility of compound in simulated intestinal fluid at pH 6.8
Type: physicochemical
List of solubility thermodynamic values.

{"columns": ["compound", "result"],
 "data": [
  ["CN(C)CCN1CCN(c2nc3c(c(Nc4ccc(C(F)(F)F)cc4)n2)CCN(c2ncccc2C(F)(F)F)CC3)CC1", "> 0.243 mg/mL"]
]}

# input compound: CN1CCCC(N(C)c2nc3c(c(Nc4ccc(C(F)(F)F)cc4)n2)CCN(c2ncccc2C(F)(F)F)CC3)C1 (centres undefined) ; wanted: its solubility thermodynamic
> 0.232 mg/mL

Please do the same for NC1CCN(c2nc3c(c(Nc4ccc(C(F)(F)F)cc4)n2)CCN(c2ncccc2C(F)(F)F)CC3)C1 (centres undefined) as well.
> 0.215 mg/mL

Please do the same for CN(CC1CCCCN1C)c1nc2c(c(Nc3ccc(C(F)(F)F)cc3)n1)CCN(c1ncccc1C(F)(F)F)CC2 (centres undefined) as well.
> 0.283 mg/mL
